Tested on: SK-OV-3 ovarian
Assay: NCI-60 one-dose screen, 48 h (100 = growth as untreated, 0 = no growth, -100 = all killed)
Details: 10 µM unless noted
Compounds without any hit were thinned out: in the full panel of roughly 83,000, 20% have a hit.
Readout Name: growth (%)

>>> print(df.to_string())
                                    compound  test_result
 0       CO[C@@H](c1ccccc1Cl)[C@H](C)OC(N)=O          102
 1  Cc1cc([N+](=O)[O-])c(Cl)cc1NS(=O)(=O)c1ccccc1           96
 2  C=CCN1C(=O)C(CC)(CCC(C)C)C(=O)NC1=S (configuration not stated)          100
 3     CCN(CC)c1ccc(C=C2C(=O)NC(=S)NC2=O)cc1         94.1
 4  C=CC(O)CN1CC1CC (configuration not stated)          107
 5                 O=C1NC2(CCNCC2)Nc2ccccc21          103
 6  CCC[CH2][Sn]([CH2]CCC)([CH2]CCC)[O]C(=O)CC        -99.5
 7       CCN1CC2(CN(CC)C1=S)C(=O)NC(=O)NC2=O         97.4
 8  COc1cc(/C=C\c2cc(OC)c(OC)c(OC)c2)cc(N/C=C\C(=O)c2ccc(OC(F)(F)F)cc2)c1OC         19.9
 9                        NCCc1cc(O)c(O)cc1O           99
10    Nc1cccc(CC(=O)Nc2ccc(S(=O)(=O)F)cc2)c1         92.4
11                       O=C(CCF)c1ccc(O)cc1          103
